B1: Homeobox protein cut-like 1, residues 941 to 1008; numbered along this chain, P39880 (parent)
chain: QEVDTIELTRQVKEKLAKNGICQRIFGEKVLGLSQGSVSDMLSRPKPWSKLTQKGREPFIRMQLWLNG

# Variants of: B1
# assay_details: abundance fitness (aPCA) (normalised: wild type 0, dead -1); higher = more abundant; growth selection in yeast, the domain comes from the species named
# experimental_conditions: Homo sapiens
abundance fitness values for the variants below.

variant_designation: G36S
abundance fitness: -0.02
//
variant_designation: K15R
abundance fitness: -0.096
//
variant_designation: T9M
abundance fitness: -0.384
//
variant_designation: L33I
abundance fitness: 0.144
//
variant_designation: S43Q
abundance fitness: 0.029
//
variant_designation: G32D
abundance fitness: -0.311
//
variant_designation: K18F
abundance fitness: -0.287
//
variant_designation: V30G
abundance fitness: 0.111
//
variant_designation: A17K
abundance fitness: 0.033
//
variant_designation: V12M
abundance fitness: -0.084
//
variant_designation: P47F
abundance fitness: -0.012
//
variant_designation: E28A
abundance fitness: -0.036
//
variant_designation: I21C
abundance fitness: -0.419
//
variant_designation: G27D
abundance fitness: -0.545
//
variant_designation: V12K
abundance fitness: -0.183
//
variant_designation: Q23V
abundance fitness: -0.321
//
variant_designation: E14F
abundance fitness: -0.443
//
variant_designation: L16H
abundance fitness: 0.009
//
variant_designation: K29P
abundance fitness: -0.431
//
variant_designation: I21Q
abundance fitness: -0.184
//
variant_designation: S43W
abundance fitness: -0.407
//
variant_designation: R10E
abundance fitness: -0.056
